Here the recorded Percent inhibition−Percent Stimulation±SEM is given for each entry.
Tested on: C. fragariae
Experiment: 96-well microtiter plate assay, fungal growth inhibition
Format: cell-based, Colletotrichum fragariae
Settings: C. fragariae; 30 μM; 48 hrs
resultType: Percent inhibition−Percent Stimulation±SEM

1) O=C1c2ccccc2-c2nccc3c2c1nc1ccccc13 [Benzo[4,5]sampangine, benzo[4,5]sampangine]
−52.9 ± 6.5%
2) N#CC(CCc1ccc(Cl)cc1)(Cn1cncn1)c1ccccc1 (centres unmarked)
−99.3 ± 1.1%
3) O=C1c2ccccc2-c2nccc3c(Br)cnc1c23
−55.9 ± 7.1%
4) COc1cnc2c3c(nccc13)-c1ccccc1C2=O
−67.9 ± 13.6%
5) CO/N=C(/C(=O)OC)c1ccccc1COc1ccccc1C
−91.5 ± 1.7%

----------
In this section, each of the compounds is paired with its reported Percent inhibition−Percent Stimulation±SEM.
Tested on: C. fragariae
Assay: 96-well microtiter plate assay, fungal growth inhibition
Assay type: cell-based, Colletotrichum fragariae
Details: C. fragariae; 0.3 μM; 72 hrs
resultType: Percent inhibition−Percent Stimulation±SEM (%)

1) N#CC(CCc1ccc(Cl)cc1)(Cn1cncn1)c1ccccc1 (centres unmarked) [Fenbucanazole]
19.0
2) CO/N=C(/C(=O)OC)c1ccccc1COc1ccccc1C [BAS 490]
−35.6
3) COc1cnc2c3c(nccc13)-c1ccccc1C2=O [4-methoxysampangine]
−30.2
4) O=C1c2ccccc2-c2nccc3c(Br)cnc1c23 [4-bromosampangine]
−15.2
5) O=C1c2ccccc2-c2nccc3c2c1nc1ccccc13 [Benzo[4,5]sampangine, benzo[4,5]sampangine]
−19.8

----------
Test system: F. oxysporum
Experiment: 96-well microtiter plate assay, fungal growth inhibition
Assay type: cell-based, Fusarium oxysporum
Details: F. oxysporum; 30 μM; 72 hrs
resultType: Percent inhibition−Percent Stimulation±SEM (%)

1) O=C1c2ccccc2-c2nccc3c(Br)cnc1c23
−9.1
2) O=C1c2ccccc2-c2nccc3c2c1nc1ccccc13 [Benzo[4,5]sampangine, benzo[4,5]sampangine]
−27.2
3) CO/N=C(/C(=O)OC)c1ccccc1COc1ccccc1C
−69.5
4) COc1cnc2c3c(nccc13)-c1ccccc1C2=O
−23.5
5) N#CC(CCc1ccc(Cl)cc1)(Cn1cncn1)c1ccccc1 (centres unmarked)
−44.5

----------
System: B. cinerea
Assay: 96-well microtiter plate assay, fungal growth inhibition
Format: cell-based, Botrytis cinerea
Conditions: Botrytis cinerea, 72 h, read-out: Percent inhibition−Percent Stimulation±SEM
Experimental: Pathogen production. […] Inoculum preparation. […] Conidia concentrations were determined photometrically, from a standard curve based on the percent of transmittance (% T) at 625 nm and suspensions were then adjusted with sterile distilled water to a concentration of 1.0×10^6 conidia/mL. Microtiter assay. […] Growth was then evaluated by measuring absorbance of each well at 620 nm using a microplate photometer (Packard Spectra Count, Packard Instrument Co., Downers Grove, Ill.). […]
resultType: inhibition at 3 µM (%)

1) O=C1C2CC=CCC2C(=O)N1SC(Cl)(Cl)Cl (centres unmarked)
54.6
2) CC(C)NC(=O)N1CC(=O)N(c2cc(Cl)cc(Cl)c2)C1=O
43.3
3) Cc1cc(C2CC2)nc(Nc2ccccc2)n1
51.3
4) CC1(C(=O)Nc2ccc(O)c(Cl)c2Cl)CCCCC1
42.7
5) CCCCNC(=O)n1c(NC(=O)OC)nc2ccccc21
40.9

----------
Tested on: B. cinerea
Assay: 96-well microtiter plate assay, fungal growth inhibition
Type: cell-based, Botrytis cinerea
Conditions: B. cinerea; 30 μM; 48 hrs
Protocol: Pathogen production. […] Inoculum preparation. […] Conidia concentrations were determined photometrically, from a standard curve based on the percent of transmittance (% T) at 625 nm and suspensions were then adjusted with sterile distilled water to a concentration of 1.0×10^6 conidia/mL. Microtiter assay. […] Growth was then evaluated by measuring absorbance of each well at 620 nm using a microplate photometer (Packard Spectra Count, Packard Instrument Co., Downers Grove, Ill.). […]
Measured Percent inhibition−Percent Stimulation±SEM accompanies every entry in the list below.
resultType: Percent inhibition−Percent Stimulation±SEM (%)

1. COc1cnc2c3c(nccc13)-c1ccccc1C2=O
−20.3
2. O=C1c2ccccc2-c2nccc3c2c1nc1ccccc13 [Benzo[4,5]sampangine, benzo[4,5]sampangine]
−99.2
3. N#CC(CCc1ccc(Cl)cc1)(Cn1cncn1)c1ccccc1 (centres unmarked)
17.6
4. O=C1c2ccccc2-c2nccc3c(Br)cnc1c23
−29.7
5. CO/N=C(/C(=O)OC)c1ccccc1COc1ccccc1C
−60.1

----------
Parameter inhibition at 0.3 µM: see the listing below.
System: C. acutatum
Assay: 96-well microtiter plate assay, fungal growth inhibition
Format: cell-based, Colletotrichum acutatum
Details: Colletotrichum acutatum, 48 h, read-out: Percent inhibition−Percent Stimulation±SEM
resultType: inhibition at 0.3 µM (%)

1. CC(C)NC(=O)N1CC(=O)N(c2cc(Cl)cc(Cl)c2)C1=O
-26.4
2. CCCCNC(=O)n1c(NC(=O)OC)nc2ccccc21
24.6
3. O=C1C2CC=CCC2C(=O)N1SC(Cl)(Cl)Cl (centres unmarked)
-2.7
4. Cc1cc(C2CC2)nc(Nc2ccccc2)n1
99.8
5. CC1(C(=O)Nc2ccc(O)c(Cl)c2Cl)CCCCC1
-21.6

----------
Test system: F. oxysporum
Assay: 96-well microtiter plate assay, fungal growth inhibition
Assay type: cell-based, Fusarium oxysporum
Conditions: Fusarium oxysporum, 72 h, read-out: Percent inhibition−Percent Stimulation±SEM
resultType: inhibition at 30 µM

1. CC1(C(=O)Nc2ccc(O)c(Cl)c2Cl)CCCCC1
21.2%
2. CCCCNC(=O)n1c(NC(=O)OC)nc2ccccc21
77.2%
3. O=C1C2CC=CCC2C(=O)N1SC(Cl)(Cl)Cl (centres unmarked)
99.8%
4. CC(C)NC(=O)N1CC(=O)N(c2cc(Cl)cc(Cl)c2)C1=O
-11.2%
5. Cc1cc(C2CC2)nc(Nc2ccccc2)n1
31.3%

----------
System: B. cinerea
Experiment: 96-well microtiter plate assay, fungal growth inhibition
Type: cell-based, Botrytis cinerea
Settings: B. cinerea; 0.3 μM; 72 hrs
resultType: Percent inhibition−Percent Stimulation±SEM (%)

1. CO/N=C(/C(=O)OC)c1ccccc1COc1ccccc1C
−66.6
2. O=C1c2ccccc2-c2nccc3c2c1nc1ccccc13 [Benzo[4,5]sampangine, benzo[4,5]sampangine]
−55.2
3. O=C1c2ccccc2-c2nccc3c(Br)cnc1c23
−22.6
4. N#CC(CCc1ccc(Cl)cc1)(Cn1cncn1)c1ccccc1 (centres unmarked)
−49.6
5. COc1cnc2c3c(nccc13)-c1ccccc1C2=O
−4.8

----------
Tested on: C. fragariae
Experiment: 96-well microtiter plate assay, fungal growth inhibition
Type: cell-based, Colletotrichum fragariae
Settings: C. fragariae; 30 μM; 72 hrs
Tag: Yes if measured Percent inhibition−Percent Stimulation±SEM is not below -40%, No if it is.

1. O=C1c2ccccc2-c2nccc3c(Br)cnc1c23
Yes
2. CO/N=C(/C(=O)OC)c1ccccc1COc1ccccc1C
No
3. O=C1c2ccccc2-c2nccc3c2c1nc1ccccc13 [Benzo[4,5]sampangine, benzo[4,5]sampangine]
Yes
4. N#CC(CCc1ccc(Cl)cc1)(Cn1cncn1)c1ccccc1 (centres unmarked)
No

----------
System: F. oxysporum
Experiment: 96-well microtiter plate assay, fungal growth inhibition
Type: cell-based, Fusarium oxysporum
Settings: F. oxysporum; 30 μM; 48 hrs
// label = Condition met if Percent inhibition−Percent Stimulation±SEM is not less than -50%, otherwise Condition not met

1. N#CC(CCc1ccc(Cl)cc1)(Cn1cncn1)c1ccccc1 (centres unmarked)
Condition met
2. O=C1c2ccccc2-c2nccc3c(Br)cnc1c23
Condition met
3. CO/N=C(/C(=O)OC)c1ccccc1COc1ccccc1C
Condition not met
4. O=C1c2ccccc2-c2nccc3c2c1nc1ccccc13 [Benzo[4,5]sampangine, benzo[4,5]sampangine]
Condition not met
5. COc1cnc2c3c(nccc13)-c1ccccc1C2=O
Condition met

----------
Test system: B. cinerea
Experiment: 96-well microtiter plate assay, fungal growth inhibition
Type: cell-based, Botrytis cinerea
Settings: Botrytis cinerea, 72 h, read-out: Percent inhibition−Percent Stimulation±SEM
Description: Pathogen production. […] Inoculum preparation. […] Conidia concentrations were determined photometrically, from a standard curve based on the percent of transmittance (% T) at 625 nm and suspensions were then adjusted with sterile distilled water to a concentration of 1.0×10^6 conidia/mL. Microtiter assay. […] Growth was then evaluated by measuring absorbance of each well at 620 nm using a microplate photometer (Packard Spectra Count, Packard Instrument Co., Downers Grove, Ill.). […]
Label yes (1) when inhibition at 30 µM is at or above 50%; anything below gets no (0).

1) CC1(C(=O)Nc2ccc(O)c(Cl)c2Cl)CCCCC1
no (0)
2) O=C1C2CC=CCC2C(=O)N1SC(Cl)(Cl)Cl (centres unmarked)
yes (1)
3) CCCCNC(=O)n1c(NC(=O)OC)nc2ccccc21
no (0)
4) CC(C)NC(=O)N1CC(=O)N(c2cc(Cl)cc(Cl)c2)C1=O
no (0)
5) Cc1cc(C2CC2)nc(Nc2ccccc2)n1
no (0)
